# ASSAY_NOTES: clinical food-effect pharmacokinetic study in healthy human men, fasted vs high-fat breakfast
# CONDITION_DESCRIPTION: male, in vivo, po, 40 mg, single oral 40 mg, Fed (high-fat breakfast), read-out: Apparent Terminal t1/2 (converted)
READOUT_TYPE: half-life (h)
Enter your answer as a number in h; do not include the unit.

Sure, the documented half-life for Cc1ccc(-n2nccn2)c(C(=O)N2CCN(c3nc4cc(Cl)ccc4o3)CC[C@H]2C)c1 [Suvorexant] is 11.8

* * *

# ASSAY_NOTES: clinical food-effect pharmacokinetic study in healthy human men, fasted vs high-fat breakfast
# CONDITION_DESCRIPTION: male, in vivo, po, 40 mg, single oral 40 mg, Fasted
READOUT_TYPE: Cmax
Answer by giving the amount and then stating its unit.

Sure, the documented Cmax for `Cc1ccc(-n2nccn2)c(C(=O)N2CCN(c3nc4cc(Cl)ccc4o3)CC[C@H]2C)c1` is 1000 nM

* * *

# ASSAY_NOTES: clinical food-effect pharmacokinetic study in healthy human men, fasted vs high-fat breakfast
# CONDITION_DESCRIPTION: male, in vivo, po, 40 mg, single oral 40 mg, Fasted, read-out: Tmax
READOUT_TYPE: Tmax (h)
Enter your answer as a number in h; do not include the unit.

Sure, the documented Tmax for `Cc1ccc(-n2nccn2)c(C(=O)N2CCN(c3nc4cc(Cl)ccc4o3)CC[C@H]2C)c1` is 2

* * *

# ASSAY_NOTES: clinical food-effect pharmacokinetic study in healthy human men, fasted vs high-fat breakfast
# CONDITION_DESCRIPTION: male, in vivo, po, 40 mg, single oral 40 mg dose of hot melt extrusion composition, Fed (standard high-fat breakfast)
READOUT_TYPE: AUC(0-inf)
Answer by giving the amount and then stating its unit.

Sure, the documented AUC(0-inf) for Cc1ccc(-n2nccn2)c(C(=O)N2CCN(c3nc4cc(Cl)ccc4o3)CC[C@H]2C)c1 [Suvorexant] is 13 µM·h

* * *

# ASSAY_NOTES: clinical food-effect pharmacokinetic study in healthy human men, fasted vs high-fat breakfast
# CONDITION_DESCRIPTION: male, in vivo, po, 40 mg, single oral 40 mg, Fed (high-fat breakfast), read-out: Tmax
READOUT_TYPE: Tmax (h)
Enter your answer as a number in h; do not include the unit.

Sure, the documented Tmax for `Cc1ccc(-n2nccn2)c(C(=O)N2CCN(c3nc4cc(Cl)ccc4o3)CC[C@H]2C)c1` is 3

* * *

# ASSAY_NOTES: clinical food-effect pharmacokinetic study in healthy human men, fasted vs high-fat breakfast
# CONDITION_DESCRIPTION: male, in vivo, po, 40 mg, Tmax (Suvorexant Fed/Suvorexant Fasted), single oral 40 mg, fed/fasted
READOUT_TYPE: Tmax (h)
Enter your answer as a number in h; do not include the unit.

Sure, the documented Tmax for `Cc1ccc(-n2nccn2)c(C(=O)N2CCN(c3nc4cc(Cl)ccc4o3)CC[C@H]2C)c1` is 1.5

* * *

# ASSAY_NOTES: clinical food-effect pharmacokinetic study in healthy human men, fasted vs high-fat breakfast
# CONDITION_DESCRIPTION: male, in vivo, po, 40 mg, single oral 40 mg, Fed (high-fat breakfast)
READOUT_TYPE: Cmax

Sure, the documented Cmax for `Cc1ccc(-n2nccn2)c(C(=O)N2CCN(c3nc4cc(Cl)ccc4o3)CC[C@H]2C)c1` is 1100 nM

* * *

# ASSAY_NOTES: clinical food-effect pharmacokinetic study in healthy human men, fasted vs high-fat breakfast
# CONDITION_DESCRIPTION: male, in vivo, po, 40 mg, single oral 40 mg, Fasted, read-out: Apparent Terminal t1/2 (converted)
READOUT_TYPE: half-life (h)
Enter your answer as a number in h; do not include the unit.

Sure, the documented half-life for `Cc1ccc(-n2nccn2)c(C(=O)N2CCN(c3nc4cc(Cl)ccc4o3)CC[C@H]2C)c1` is 10.9
